molecular target: UniProt P23443
Sequence (P23443 whole entry): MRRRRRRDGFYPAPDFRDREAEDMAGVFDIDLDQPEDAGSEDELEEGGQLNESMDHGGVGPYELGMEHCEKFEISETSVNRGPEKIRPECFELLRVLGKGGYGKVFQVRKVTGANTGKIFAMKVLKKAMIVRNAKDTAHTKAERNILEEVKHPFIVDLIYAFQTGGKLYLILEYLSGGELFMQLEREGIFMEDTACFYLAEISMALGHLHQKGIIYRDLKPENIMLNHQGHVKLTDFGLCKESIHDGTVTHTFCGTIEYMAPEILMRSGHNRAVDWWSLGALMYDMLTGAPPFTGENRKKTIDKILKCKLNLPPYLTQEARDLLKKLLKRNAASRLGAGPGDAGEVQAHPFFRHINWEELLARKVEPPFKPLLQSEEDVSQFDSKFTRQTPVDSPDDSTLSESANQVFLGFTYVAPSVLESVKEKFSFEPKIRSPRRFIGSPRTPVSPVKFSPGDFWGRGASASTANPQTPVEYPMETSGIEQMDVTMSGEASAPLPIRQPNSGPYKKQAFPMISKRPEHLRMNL
REPORTED METRIC: IC50 (nM)
Answers are plain numbers, in nM.

Request: For the compound NC1(Cc2ccc(Cl)cc2)CCN(c2ncnc3[nH]ccc23)CC1 , what IC50 is on record?
Result: 120

###

Kindly state pIC50 for each of the entries shown.
test: Inhibition of recombinant catalytic subunit PKA by radiometric filter binding assay
Give bare numbers, as −log10 of the molar value.

Below: 5 compounds and their reported pIC50.
COMPOUND	REPORTED METRIC	NUMERIC READOUT
NC(c1ccc(Cl)cc1)C1CCN(c2ncnc3[nH]ccc23)CC1 (configuration not stated)	pIC50	7.27
NC1CCN(c2ncnc3[nH]ncc23)CC1	pIC50	5.14
NC1(Cc2ccc(Cl)cc2)CCN(c2ncnc3[nH]cnc23)CC1	pIC50	6.54
O=S(=O)(NCCNC/C=C/c1ccc(Br)cc1)c1cccc2cnccc12	pIC50	5.28
NC1(c2ccc(Cl)cc2)CCN(c2ncnc3[nH]cnc23)CC1	pIC50	7.64

I would be grateful if you could provide pIC50 for each of the following entries.
1. NCC1CCN(c2ncnc3[nH]ccc23)CC1
2. NC1CCN(c2ccnc3[nH]ccc23)CC1
3. NC(c1ccc(Cl)cc1)C1CCN(c2ncnc3[nH]cnc23)CC1 (configuration not stated)
4. NCC1(c2ccc(Cl)cc2)CCN(c2ccnc3[nH]ccc23)CC1
5. NCC1(c2ccc(Cl)cc2)CCN(c2ncnc3[nH]cnc23)CC1
6. NCC1(Cc2ccc(Cl)cc2)CCN(c2ncnc3[nH]cnc23)CC1
7. NC(c1ccccc1)C1CCN(c2ncnc3[nH]ccc23)CC1 (configuration not stated)

Result:
1: 6.34; 2: 5.71; 3: 7.57; 4: 8.52; 5: 8.52; 6: 8.15; 7: 6.14

###

experiment: AUC in BALB/c mouse at 25 mg/kg, po; assay type: ADME, organism-based; design: dose 25 mg/kg, route oral; conditions: plasma
REPORTED METRIC: AUC (nM·h)
Give bare numbers, in nM·h.

Request: For the compound NC1(Cc2ccc(Cl)cc2)CCN(c2ncnc3[nH]ccc23)CC1 , what AUC is on record?
Result: 392

###

molecular target: RAC-beta serine/threonine-protein kinase (Homo sapiens, UniProt P31751); assay: Inhibition of PKBbeta recombinant by radiometric filter binding assay
Sequence (P31751 whole entry): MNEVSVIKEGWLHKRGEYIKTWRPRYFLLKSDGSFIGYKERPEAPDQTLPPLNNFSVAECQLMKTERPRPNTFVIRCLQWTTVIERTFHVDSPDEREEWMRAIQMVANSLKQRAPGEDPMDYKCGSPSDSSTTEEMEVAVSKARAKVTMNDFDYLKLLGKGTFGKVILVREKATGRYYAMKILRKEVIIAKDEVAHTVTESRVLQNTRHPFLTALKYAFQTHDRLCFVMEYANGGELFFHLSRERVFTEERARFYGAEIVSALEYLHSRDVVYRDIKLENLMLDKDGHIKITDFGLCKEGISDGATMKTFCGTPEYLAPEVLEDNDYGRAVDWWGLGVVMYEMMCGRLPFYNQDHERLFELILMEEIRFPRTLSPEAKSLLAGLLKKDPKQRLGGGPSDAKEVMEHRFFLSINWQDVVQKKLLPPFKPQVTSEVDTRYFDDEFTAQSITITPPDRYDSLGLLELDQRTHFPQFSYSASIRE
Kindly state IC50 for each of the entries shown.
Please provide the amount together with its unit, number first.

Below: 6 compounds and their reported IC50.
COMPOUND	MEASUREMENT TARGET	IC50
Cc1nc2ncnc(N3CCC(N)CC3)c2[nH]1	RAC-beta serine/threonine-protein kinase (Homo sapiens, UniProt P31751)	110000 nM
NCC1CCN(c2ncnc3[nH]cnc23)CC1	RAC-beta serine/threonine-protein kinase (Homo sapiens, UniProt P31751)	290 nM
NCC1(c2ccc(Cl)cc2)CCN(c2ccnc3[nH]ccc23)CC1	RAC-beta serine/threonine-protein kinase (Homo sapiens, UniProt P31751)	25 nM
NCC1(c2ccc(Cl)cc2)CCN(c2ncnc3[nH]cnc23)CC1	RAC-beta serine/threonine-protein kinase (Homo sapiens, UniProt P31751)	16 nM
NC1CCN(c2ccnc3[nH]ccc23)CC1	RAC-beta serine/threonine-protein kinase (Homo sapiens, UniProt P31751)	880 nM
NC(c1ccccc1)C1CCN(c2ncnc3[nH]ccc23)CC1 (configuration not stated)	RAC-beta serine/threonine-protein kinase (Homo sapiens, UniProt P31751)	246 nM

Then there is this compound:
Request: For RAC-beta serine/threonine-protein kinase (Homo sapiens, UniProt P31751), provide IC50 of NC(=O)C1CCN(c2ncnc3[nH]cnc23)CC1 please.
Result: 41000 nM
